- target_entity: Ba/F3 ERBB2 A775_G776insYVMA (Homo sapiens, UniProt P04626, DUP772-775, cells depend on it)
- Sequence (P04626 with tags, fused parts or gaps DUP772-775): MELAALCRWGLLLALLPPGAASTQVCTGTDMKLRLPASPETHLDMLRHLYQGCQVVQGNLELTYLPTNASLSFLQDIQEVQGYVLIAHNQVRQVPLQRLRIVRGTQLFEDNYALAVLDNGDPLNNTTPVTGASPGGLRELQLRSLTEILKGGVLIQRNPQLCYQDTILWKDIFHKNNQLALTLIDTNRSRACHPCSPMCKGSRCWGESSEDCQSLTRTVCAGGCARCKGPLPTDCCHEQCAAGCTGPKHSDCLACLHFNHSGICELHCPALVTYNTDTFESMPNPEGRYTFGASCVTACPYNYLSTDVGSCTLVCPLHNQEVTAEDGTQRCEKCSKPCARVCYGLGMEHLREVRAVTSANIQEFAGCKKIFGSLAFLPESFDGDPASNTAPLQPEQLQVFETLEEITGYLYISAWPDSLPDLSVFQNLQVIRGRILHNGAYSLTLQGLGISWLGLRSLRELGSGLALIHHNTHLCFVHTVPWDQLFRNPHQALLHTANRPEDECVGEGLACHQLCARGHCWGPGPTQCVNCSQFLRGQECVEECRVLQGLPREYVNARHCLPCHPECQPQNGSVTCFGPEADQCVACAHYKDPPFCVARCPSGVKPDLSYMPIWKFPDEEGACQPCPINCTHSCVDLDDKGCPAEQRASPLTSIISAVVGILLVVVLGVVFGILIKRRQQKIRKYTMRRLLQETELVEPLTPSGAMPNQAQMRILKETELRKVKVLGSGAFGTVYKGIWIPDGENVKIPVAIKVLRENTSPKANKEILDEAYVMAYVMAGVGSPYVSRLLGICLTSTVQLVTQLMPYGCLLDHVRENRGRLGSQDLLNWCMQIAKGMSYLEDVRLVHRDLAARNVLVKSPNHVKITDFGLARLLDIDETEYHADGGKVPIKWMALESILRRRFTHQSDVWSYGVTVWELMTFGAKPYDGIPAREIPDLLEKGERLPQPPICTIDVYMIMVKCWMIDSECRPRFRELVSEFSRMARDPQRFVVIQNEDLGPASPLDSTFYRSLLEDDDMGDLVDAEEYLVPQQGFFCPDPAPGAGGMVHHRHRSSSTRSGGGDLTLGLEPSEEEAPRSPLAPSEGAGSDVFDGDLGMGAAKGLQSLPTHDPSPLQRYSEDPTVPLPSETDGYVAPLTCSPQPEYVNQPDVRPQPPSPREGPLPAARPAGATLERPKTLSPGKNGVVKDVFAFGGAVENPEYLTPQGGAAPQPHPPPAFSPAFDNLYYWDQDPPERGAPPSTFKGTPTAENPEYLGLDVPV
- assay_method_text: Cell viability assay, Ba/F3 ERBB2 A775_G776insYVMA
- Type: cell-based, mouse
- experimental_conditions: Ba/F3 ERBB2 YVMA cells, cell viability, 72 hours, CellTiter Glo; Table B5; read-out: Ba/F3 ERBB2 YVMA, IC50
Sorting guide: entries reporting GI50 beneath 5 nM go in the fulfilled pile, the rest go in the not fulfilled pile.

compound=Cc1cc(Nc2ncnc3ccc(N4CC/C(=C\CCN(C)C)C4=O)nc23)ccc1Oc1ccn2ncnc2c1 group_label=fulfilled
compound=CN(C)C/C=C1\CCN(c2cc3c(Nc4cc(F)c(Oc5ccn6ncnc6c5)cc4F)ncnc3cn2)C1=O group_label="not fulfilled"
compound="Cc1cc(Nc2ncnc3ccc(N4CC(C)C(=CCN(C)C)C4=O)nc23)ccc1Oc1ccc2c(c1)nnn2C (single isomer, unassigned) [Example S126, Enantiomer #1]" group_label=fulfilled
compound=Cc1cc(Nc2ncnc3ccc(N4CC/C(=C\CCN(C)C)C4=O)cc23)ccc1Oc1ccc2c(c1)ncn2C group_label="not fulfilled"
compound=Cc1cc(Nc2ncnc3ccc(N4CC/C(=C\[C@@H]5CCCN5C)C4=O)nc23)ccc1Oc1ccn2ncnc2c1 group_label=fulfilled

is_below(GI50, 5 nM) for Cc1cc(Nc2ncnc3ccc(N4CC/C(=C\CN(C)C)C4=O)nc23)ccc1Oc1cncc(F)c1 ?
not fulfilled

Report whether reported GI50 is lower than 5 nM (strictly) for C=C1CCN(c2cc3c(Nc4ccc(Oc5ccn6ncnc6c5)c(C)c4)ncnc3cc2OCCN(C)C)C1=O
not fulfilled

A record lists C=C1CCN(c2cc3c(Nc4ccc(Oc5ccc6c(c5)ncn6C)c(C)c4)ncnc3cn2)C1=O . Is its GI50 below 5 nM?
not fulfilled

Consider Cc1cc(Nc2ncnc3cnc(N4CC(C)C(=CCN(C)C)C4=O)cc23)ccc1Oc1ccc2c(c1)ncn2C (single isomer, unassigned) [Example S97, Enantiomer #2] . Does its GI50 lie strictly below 5 nM?
fulfilled

Bench note: check whether Cc1cc(Nc2ncnc3cnc(N4CC/C(=C\CN(C)C)C4=O)cc23)ccc1Oc1cccnc1 shows GI50 below 5 nM
not fulfilled

Say whether its GI50 is strictly beneath 5 nM. Entry: CN(C)C/C=C1\CCN(c2ccc3ncnc(Nc4ccc(Oc5ccc6c(c5)ncn6C)cc4)c3n2)C1=O
fulfilled

Report whether reported GI50 is lower than 5 nM (strictly) for [2H]C([2H])([2H])n1cnc2cc(Oc3ccc(Nc4ncnc5ccc(N6CC/C(=C\CN(C)C)C6=O)nc45)cc3C)ccc21
fulfilled

----------
pIC50 listing for selected compounds.
- target_entity: phosphorylated EGFR (pEGFR) (Homo sapiens)
- Construct: performed to measure phosphorylated EGFR levels using A431 cells (10% FBS); endogenous in cells
- Sequence (P00533 25-1210): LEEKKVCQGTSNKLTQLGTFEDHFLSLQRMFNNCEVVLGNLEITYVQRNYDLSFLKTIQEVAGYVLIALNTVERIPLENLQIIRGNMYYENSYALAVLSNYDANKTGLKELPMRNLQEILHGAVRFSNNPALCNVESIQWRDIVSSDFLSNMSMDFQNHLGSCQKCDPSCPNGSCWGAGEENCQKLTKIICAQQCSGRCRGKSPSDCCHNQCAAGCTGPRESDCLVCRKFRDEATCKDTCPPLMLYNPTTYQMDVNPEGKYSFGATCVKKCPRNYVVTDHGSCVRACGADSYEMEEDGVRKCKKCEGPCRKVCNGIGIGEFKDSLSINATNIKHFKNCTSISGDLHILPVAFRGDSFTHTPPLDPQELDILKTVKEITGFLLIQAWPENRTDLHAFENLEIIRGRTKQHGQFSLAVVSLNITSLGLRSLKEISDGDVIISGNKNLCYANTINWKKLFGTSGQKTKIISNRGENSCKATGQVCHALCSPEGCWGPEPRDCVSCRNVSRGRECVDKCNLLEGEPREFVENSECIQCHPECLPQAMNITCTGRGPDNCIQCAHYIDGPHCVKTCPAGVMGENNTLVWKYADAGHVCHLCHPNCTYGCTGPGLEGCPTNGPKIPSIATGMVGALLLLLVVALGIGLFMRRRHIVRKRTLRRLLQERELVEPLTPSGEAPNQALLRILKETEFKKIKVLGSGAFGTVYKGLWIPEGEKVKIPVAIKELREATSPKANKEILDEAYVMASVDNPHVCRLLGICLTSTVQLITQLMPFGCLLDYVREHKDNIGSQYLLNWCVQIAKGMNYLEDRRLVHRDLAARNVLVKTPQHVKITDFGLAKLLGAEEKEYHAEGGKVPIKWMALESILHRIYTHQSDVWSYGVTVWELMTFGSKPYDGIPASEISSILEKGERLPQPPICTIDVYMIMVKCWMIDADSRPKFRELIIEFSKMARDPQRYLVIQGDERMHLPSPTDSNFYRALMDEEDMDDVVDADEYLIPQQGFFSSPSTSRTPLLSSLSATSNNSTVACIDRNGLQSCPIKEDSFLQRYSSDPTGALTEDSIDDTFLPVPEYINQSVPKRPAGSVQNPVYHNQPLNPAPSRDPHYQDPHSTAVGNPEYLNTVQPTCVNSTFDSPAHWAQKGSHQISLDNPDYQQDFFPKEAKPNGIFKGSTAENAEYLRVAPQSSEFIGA
- assay_method_text: Detection of phosphorylated EGFR (pEGFR) in EGF-stimulated A431 cells
- experimental_conditions: A431 cells (10% FBS), 4 hours incubation, EGF 30 ng/mL 10 minutes, AlphaLISA
Scale explanation: pIC50 corresponds to minus log10 of a concentration expressed in moles per litre.

Report pIC50 on phosphorylated EGFR (pEGFR) (Homo sapiens) for this entry: C=C1CCN(c2ccc3ncnc(Nc4ccc(Oc5ccn6ccnc6c5)c(C)c4)c3c2)C1=O [Compound 4]
6.69

Report measured pIC50 on phosphorylated EGFR (pEGFR) (Homo sapiens); entry: CCc1ccc(Oc2ccc(Nc3ncnc4cnc(N5CC/C(=C\CN(C)C)C5=O)cc34)cc2C)cn1 [Compound 73]
6.29
